biological target: T1, human recombinant IL-5 protein with a histidine tag at carboxyl terminal (human, UniProt P05113 20-134); experiment: BLI (Octet 96), binding molecule on sensor, IL-5 antigen 200 nM and 2-fold dilutions
T1 construct: range 20-134; Expressed in 293F cells; also called hrIL-5-cHis; human IL-5 protein; not shown: histidine tag at carboxyl terminal
measure: kon (M⁻¹ s⁻¹)
Give bare numbers, in M⁻¹ s⁻¹.

binder	measured_number
Fc fusion protein of anti-IL-5 single-domain antibody 1B3 (Fc fusion, not shown: a dimerising Fc or GST, Vector RJK-V4-hFC; Embodiments name a human IgG4 Fc; also called clone 1B3) chain (part 1 of 2): QVQLVESGGGSVQAGGSLRLSCAASGITASTSCMGWFRQSPGKEREGSLATIYDGSTSYADSVKGRFTISVDNAKNILYLQMNNLKPEDTAMYYCAAAKYCMFWSHPSYWGQGTQVTVSS chain (part 2 of 2): HHHHHH	149000
humanized Fc-fused single-domain antibody 1B3-V2 (Fc fusion, not shown: a dimerising Fc or GST, Humanized variant of 1B3; vector RJK-V4-hFC) chain (part 1 of 2): QVQLVESGGGSVQAGGSLRLSCAASGITASTSCMGWFRQSPGKEREGSLATIYDASTSYADSVKGRFTISRDNSKNILYLQMNNLRAEDTAVYYCAAARYCMFWSHPSYWGQGTQVTVSS chain (part 2 of 2): HHHHHH	180000
Fc fusion protein of anti-IL-5 single-domain antibody 2B3 (Fc fusion, not shown: a dimerising Fc or GST, Vector RJK-V4-hFC; also called clone 2B3) chain (part 1 of 2): QVQLVESGGGSVQAGGSLRLSCAASGNTFSFSTYCMGWFRQSPGKEREGSLATIYDGSTAYAGSVKGRFTISVDNAKNILYLQMNNLKPEDTAMYYCAAAKYCMFWSDPSYWGQGTQVTVSS chain (part 2 of 2): HHHHHH	184000

Next:
Name the reported kon value associated with the binder humanized Fc-fused single-domain antibody 2B3-V2 (Fc fusion, not shown: a dimerising Fc or GST, Humanized variant of 2B3; vector RJK-V4-hFC) chain (part 1 of 2): QVQLVESGGGSVQAGGSLRLSCAASGNTFSFSTYCMGWFRQSPGKEREGSLATIYDASTAYAGSVKGRFTISRDNSKNILYLQMNNLRAEDTAVYYCAAARYCMFWSHPSYWGQGTQVTVSS chain (part 2 of 2): HHHHHH 197000
